Molecular target: MBP-FoxP1dN (Mus musculus, UniProt P58462 326-579)
Sequence: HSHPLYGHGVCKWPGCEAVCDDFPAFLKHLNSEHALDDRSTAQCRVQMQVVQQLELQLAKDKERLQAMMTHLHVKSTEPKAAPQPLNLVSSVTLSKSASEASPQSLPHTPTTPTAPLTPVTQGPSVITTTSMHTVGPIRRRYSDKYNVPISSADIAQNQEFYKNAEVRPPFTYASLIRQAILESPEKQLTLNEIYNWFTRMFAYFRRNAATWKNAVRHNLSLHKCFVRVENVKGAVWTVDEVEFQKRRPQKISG
Test: PD-seq (MBP pull-down with sequencing); 20 mM Tris-HCl pH 7.5, 100 mM NaCl, 1.5 mM MgCl2, 0.4 uM protein, 0.1 uM dsDNA library, 30 min, room temperature, amylose pull-down; high values mean tight binding
Details: protein: recombinant; tags: His6-MBP; chain copies: 2; dsDNA, one strand shown
Whole data set: some 16,000 sequences, median “rpm ratio (pull-down/input)” near 0.94, cut for the highest 2% near 1.7. For the sample, the highest values were picked, then their nearest neighbours and some sequences at random.
PARAMETER: binding signal

Worked set:
GATGATTGTTCTCCCAGCTGATGAATTTACATCCTCGAGTAAACAAATTTTCCTAATCTTTCTGTTCAAGCGCCATCTAC: 1.26 RPM ratio (pull-down/input)
GATGATTGTTCTCCCAGCTGATGAATTCTCTTCATCGAGTAAACAAATTTTCCTAATCTTTCTGTTCAAGCGCCATCTAC: 0.886 RPM ratio (pull-down/input)
GATGATTGTTCTCCCAGCTGATGAATTAATGTTGTCGAGTAAACAAATTTTCCTAATCTTTCTGTTCAAGCGCCATCTAC: 2.64 RPM ratio (pull-down/input)

Report binding signal for GATGATTGTTCTCCCAGCTGATGAATTGCGGCTATCGAGTAAACAAATTTTCCTAATCTTTCTGTTCAAGCGCCATCTAC
1.02 RPM ratio (pull-down/input)
